I'd be grateful if you could share measured TbrCatL Inhibition 10’ for these entries.
study system: TbrCatL (Trypanosoma brucei rhodesiense, UniProt Q95PM0)
Construct: Conor Caffrey (University of California San Diego)
Sequence (Q95PM0 entry or part of it): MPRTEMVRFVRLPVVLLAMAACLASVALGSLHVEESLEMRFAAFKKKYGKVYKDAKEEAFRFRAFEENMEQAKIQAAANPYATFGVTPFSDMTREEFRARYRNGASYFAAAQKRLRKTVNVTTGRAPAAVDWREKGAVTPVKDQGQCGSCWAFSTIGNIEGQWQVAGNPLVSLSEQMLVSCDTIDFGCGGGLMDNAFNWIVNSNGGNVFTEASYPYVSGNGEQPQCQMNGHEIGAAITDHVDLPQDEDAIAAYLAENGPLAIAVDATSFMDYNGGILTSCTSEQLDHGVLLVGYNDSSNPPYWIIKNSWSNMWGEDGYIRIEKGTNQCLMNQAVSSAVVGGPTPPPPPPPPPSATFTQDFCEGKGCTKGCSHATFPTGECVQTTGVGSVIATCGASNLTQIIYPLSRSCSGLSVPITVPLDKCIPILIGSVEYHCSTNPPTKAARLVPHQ
assay method text: TbrCatL enzymatic inhibition assay (cleavage of fluorogenic substrate Z-FR-AMC);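 as to TbrCatL Inhibition 10’: at 5 µM compound concentration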
Type: biochemical
test context: 10’ (pre-incubation); sheet Screening results
One number for each entry, in %.

Look over these answered cases.
CC(=O)NCC1CN(c2ccc(-c3ccc(CO)cc3)c(F)c2)C(=O)O1 (centres unmarked) : -5
CCCn1c(CNc2ccccc2O)nc2ccccc21 : 3.3
CCN(CC)CCCCCCNc1cc(OC)cc2c(C)ccnc12 : 5.6
Cc1ccc2[nH]c3c(NCCN(C)C)ncnc3c2c1 : 14

# compound CC(C)N=c1cc2n(-c3ccc(Cl)cc3)c3ccccc3nc-2cc1Nc1ccc(Cl)cc1 ; its TbrCatL Inhibition 10’ = 3

====

study system: cruzain (Trypanosoma cruzi);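 also: at 5 µM compound concentration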
Sequence (P25779 123-337 limits assumed): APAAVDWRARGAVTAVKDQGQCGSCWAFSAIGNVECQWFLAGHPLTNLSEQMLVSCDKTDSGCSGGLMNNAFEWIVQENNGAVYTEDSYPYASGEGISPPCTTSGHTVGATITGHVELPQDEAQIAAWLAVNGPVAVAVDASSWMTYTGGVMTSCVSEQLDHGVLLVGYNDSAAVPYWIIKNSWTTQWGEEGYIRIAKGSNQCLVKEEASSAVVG
assay method text: biochemical
test context: 0’ (pre-incubation time); sheet "Screening results"
Kindly supply the reported Cruzain 0’ Inhibition values for the records listed here.
One number for each entry, in %.

Cc1cc(OCC(=O)Nc2ccc(C(C)C)cc2)n(C)c(=O)c1C#N : -4.6
CC(=O)N(CCN(C(=O)c1ccc(F)cc1)c1ccccc1)c1ccccc1 : -6
CCOc1ccc(OCC(=O)Nc2cc(C)cc(C)c2)cc1 : 6
O=C(C1CCN(c2nnnn2-c2ccccc2)CC1)N1CCc2ccccc2C1 : 0.1
O=C1O[C@@H](COc2ccon2)CN1c1cc(F)c(C2=CCN(Cc3ccccc3)CC2)c(F)c1 : 2.7

Look at each compound and report its Cruzain 0’ Inhibition.
1. COc1ccc(CCN2CCC(NCc3cccc(N(C)C)c3)CC2)cc1
2. NS(=O)(=O)c1cncc(-c2ccc3nccc(-c4cn[nH]c4)c3n2)c1
3. Cc1ccc(NC(=O)c2cc(S(=O)(=O)NC(C)(C)C)ccc2C)nc1
4. O=C(Nc1ccc(N2CCNCC2)nc1)c1oc(-c2ccccc2)nc1C(F)(F)F

1: 5.7; 2: 7; 3: 1; 4: 5.6

====

study system: cruzain (Trypanosoma cruzi);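 also: at 5 µM compound concentration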
assay method text: biochemical
test context: 0’ (no pre-incubation); sheet Screening results
For each of the compounds below, state its Cruzain Inhibition 0’.
Answers are plain numbers, in %.

Observe how each entry below is paired with its result.
N=C(N)c1ccc(OCCCCCOc2ccc(C(=N)N)cc2)cc1 : 19
O=C1N(Cc2cc3ccccc3s2)CC2CN(Cc3ccccc3)CCN12 (stereo not drawn) : 7.6
CC(=O)NC[C@H]1CN(c2ccc(N3CCSCC3)c(F)c2)C(=O)O1 : 14

For each entry beneath this line, provide reported Cruzain Inhibition 0’.
1. Cc1[nH]c2ccccc2c1C(c1cccs1)N1CCN(C)CC1 (stereo not drawn)
2. CCOc1ccc2cc(-c3nn(C(C)(C)C)c(N)c3C(N)=O)cnc2c1
3. O=C(C(Cc1c[nH]c2ccccc12)NS(=O)(=O)c1ccc(Cl)cc1)N1CCCCC1 (stereo not drawn)

1. 2.7
2. 5.4
3. 4.5

====

study system: TbrCatL (Trypanosoma brucei rhodesiense, UniProt Q95PM0)
Construct: Conor Caffrey (University of California San Diego)
assay method text: TbrCatL enzymatic inhibition assay (cleavage of fluorogenic substrate Z-FR-AMC)
Format: biochemical
test context: read-out: Inhibition at 100 µM (Mean ± SEM %) TbrCatL 0′
Method: Allison Doak and Prof. Brian Shoichet (University of California San Francisco, San Francisco, CA, USA) and Prof. Conor Caffrey (University of California San Diego, San Diego, CA, USA) generously provided recombinant cruzain and TbrCatL, respectively. In vitro activity of proteases cruzain and TbrCatL was assayed as previously described. Briefly, enzyme activity was measured by monitoring the cleavage of the fluorogenic substrate Z-Phe-Arg-amidomethylcoumarin (Z-FR-AMC) at 25 °C. […]
Assign inhibition at 100 µM to each entry below.

O=C(NCCN1CCCC1)c1cc(NCCCCN2CCC(F)(F)CC2)nc2ccc(Cl)cc12 [MMV667494] : 0%
COc1cc(C2=NCCN2)cc2cc(-c3ccc(C4=NCCN4)cc3)oc12 [MMV688362] : 100%
N#Cc1ccc(-c2cnc(N)c(-c3ccc(C(N)=O)cc3)n2)cc1 [MMV085499] : 26%
N=C(N)Nc1ccc(-c2ccc(-c3ccc(NC(=N)N)cc3Cl)o2)c(Cl)c1 [MMV688179] : 100%
Cn1ccnc1CNCCS(=O)(=O)c1cccc(Nc2ccc(-c3cccc(F)c3)cn2)c1 [MMV688466] : 96%
CN1CCN(S(=O)(=O)c2ccc(-c3ccc4c(Nc5ccc6nn[nH]c6c5)ccnc4c3)cc2)CC1 [MMV687246] : 92%
CN1CCN(CCCOc2ncc(Nc3ncc(-c4ccc(C(F)(F)F)c(F)c4)nc3C(N)=O)cn2)CC1 [MMV687812] : 90%

Please look at the following compound next.
Form: compound = COc1ccc(C2=NN(C3CCCCCC3)C(=O)C2(C)C)cc1OCCCCOc1ccc(-c2nn[nH]n2)cc1 [MMV690028] ; inhibition at 100 µM = 100%

====

study system: TbrCatL (Trypanosoma brucei rhodesiense, UniProt Q95PM0)
Construct: Conor Caffrey (University of California San Diego)
assay method text: TbrCatL enzymatic inhibition assay (cleavage of fluorogenic substrate Z-FR-AMC);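 as to TbrCatL 0’ Inhibition: at 5 µM compound concentration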
Assay type: biochemical
test context: 0’ (pre-incubation time); sheet "Screening results"
Provide the recorded TbrCatL 0’ Inhibition for the entries that follow.
// return the numeric value with its unit appended

Example results:
COc1ccc2nc(C)cc(OCC(=O)NCc3ccccc3)c2c1 [MMV687189] : 2.6%
FC(F)(F)c1cnc(Sc2nnc(-c3ccncc3)o2)c(Cl)c1 [MMV011765] : -4%
Cc1[nH]c2cc(F)cc(F)c2c(=O)c1-c1ccc(Oc2ccc(OC(F)(F)F)cc2)cc1 [MMV671636] : 10%
COc1ccc(-c2cnc3cnc(-c4cccc(OC(C)C)c4)cn23)cc1 [MMV688270] : -8%
CCOC(=O)c1c(NC(=O)c2c(F)c(F)c(F)c(F)c2F)sc(C(N)=O)c1C [MMV153413] : 1.1%

# return TbrCatL 0’ Inhibition for each item in the list
1. COc1cc(NC(=O)Cc2nn(C)c(=O)c3ccccc23)ccc1Cl [MMV676053]
2. O=C(Nc1c(O)cccc1-c1nc2c(C(=O)O)cccc2o1)c1cc(-c2ccccc2)on1 [MMV676008]
3. CC1(C)Cc2c(c(N3CCOCC3)nc3snc(Br)c23)CO1 [MMV687794]
4. Nc1nc(N)c2c3c(sc2n1)CN(Cc1ccccc1)CC3 [MMV688345]
5. O=C(Nc1cccc(-c2ccc(NCCCN3CCCC3)nc2)c1)c1ccccc1 [MMV023953]
6. FC(F)(F)c1ccc(N(c2cccnc2)C2CCN(c3ccc(C(F)(F)F)cn3)CC2)cc1 [MMV689243]
7. Clc1ccc(-n2cc(COc3ccnc4ccccc34)nn2)cc1 [MMV675994]

1.2%
2.6%
4.7%
-1%
12%
-9%
-1.8%

Consider the following items and state reported TbrCatL 0’ Inhibition for each.
1. COc1ccc2nc(C)cc(OCC(=O)Nc3ccccc3OC)c2c1 [MMV687188]
2. Cc1ccc(NC(=O)c2cc(S(=O)(=O)NC(C)(C)C)ccc2C)nc1 [MMV020289]
3. CCOc1ccccc1NC(C)C(=O)Nc1cc(C(F)(F)F)ccc1N1CCOCC1 (stereo not shown) [MMV407834]
4. O=C(N[C@H](Cc1ccccc1)C(=O)Nc1ccccc1N1CCOCC1)c1cccs1 [MMV688845]
5. CCCCc1ccc(NC(=O)Nc2ccc(O[C@H]3CCCC[C@@H]3N(C)c3ccccc3)c(F)c2)cc1 [MMV676063]
6. CCC(NC(=O)c1ccccc1NC(=O)c1ccc(C)cc1)C(=O)OC (stereo not shown) [MMV019551]

-0.5%
1.9%
-3%
-0.3%
-17%
-0.4%

====

Record form. Attribute: TbrCatL Inhibition 0’. Fill in for each entry.
study system: TbrCatL (Trypanosoma brucei rhodesiense)
Construct: Conor Caffrey (University of California San Diego)
assay method text: TbrCatL enzymatic inhibition assay (cleavage of fluorogenic substrate Z-FR-AMC);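 as to TbrCatL Inhibition 0’: at 5 µM compound concentration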
Type: biochemical
test context: 0’ (no pre-incubation); sheet Screening results
Numbers only, in %.

Look over these answered cases.
O=C(NCCc1c[nH]c2ccccc12)c1cc2ccccc2oc1=O : 10
O=C(c1cc2ccccc2o1)N1CCN(Cc2ccc3c(c2)OCO3)CC1 : 5
CC1=NN(c2nc3ccccc3s2)C(=O)C1Cc1cccc2ccccc12 (stereo not drawn) : -23

Give me TbrCatL Inhibition 0’ for each of these compounds, listed below.
1. Cc1cc(C(=O)Nc2cnn(Cc3ccc(Cl)cc3Cl)c2)no1
2. CC(=O)Oc1ccccc1C(=O)Nc1ncc([N+](=O)[O-])s1

1. -14
2. 10

Hi team, please reply with TbrCatL Inhibition 0’ for each item in this list.
1. CCCn1nnc(NC(=O)COc2ccc(C3CCCCC3)cc2)n1
2. Cc1cc(OCC(=O)NCc2ccccc2)c2cc(Br)ccc2n1
3. O=C(CCC1CCCCC1)Nc1cccc(-c2nnc(-c3ccco3)o2)c1
4. CC(Oc1cccc(Cl)c1)C(=O)Nc1ccc2oc(-c3ccncc3)nc2c1 (stereo not drawn)

10
2
3.3
13
